System: SN12C renal
Experiment: NCI tumour cell line growth inhibition, 48 h
Measured log10 of TGI values are reported for all entries that follow.
Each number you see is log10 of TGI, and the unit inside the log is µM.

N#CI1OC(C(F)(F)F)(C(F)(F)F)c2ccccc21 :: 1.83

Q) Query for SN12C renal: what log10 of TGI does the record show for `COc1ccc2sc3c(NCCCNCCO)nc4ccccc4c3c(=O)c2c1` ?
A) 0.49

Q) Cool, now COc1cccc2c1C(=O)c1c(O)c3c(c(O)c1C2=O)C[C@@](O)(/C(C)=N\O)C[C@@H]3OC1CC(N)C(O)C(C)O1 (some centres not stated)
A) 1.12

Q) Cool, now `COc1cccc2c(Nc3ccc(C(=O)NCCN(C)C)cc3)cc(-c3ccccc3)nc12`
A) 1.56

Q) Cool, now C=C1CO[C@@H]2C[C@@H]1CCC1(C)OC1CC/C(C)=C/CC[C@@]2(C)O (some centres not stated)
A) 1.83

Q) Cool, now `CN1CCN(c2cc(Nc3cc(C4CC4)[nH]n3)nc(Nc3ccc(CC(=O)NCc4cccc(F)c4)cc3)n2)CC1`
A) 1.16

Q) Cool, now Nc1nc(Nc2ccc3c(c2)CCC(N2CCCC2)CC3)nn1-c1cc2c(nn1)-c1ccccc1CCC2 (configuration not stated)
A) 0.26

Q) Cool, now CCCCNCC(O)c1cc(-c2ccc(C(F)(F)F)cc2)nc(-c2ccc(C(F)(F)F)cc2)c1 (configuration not stated)
A) 0.55

Q) Cool, now `CN(C)/C=N/S(=O)(=O)c1nn2c(C=O)c(-c3cc4ccccc4oc3=O)nc2s1`
A) 1.39

Q) Cool, now `Cc1nc2ccccc2cc1C[N+]12CN3CN(CN(C3)C1)C2`
A) 1.68

* * *

Tested on: NCI-H23 lung
Experiment: NCI tumour cell line growth inhibition, 48 h
endpoint-name: TGI (µM)
Hi! Could you send only the number? It should be in µM, unit omitted.

OC1(c2ccc(Cl)cc2)c2ccccc2C2=NCc3ccccc3CN21 (stereo unspecified) :: 23.7
COc1cc(/C=C2\CCc3ccccc3C2=O)cc(OC)c1OC :: 29.2
O=[N+]([O-])c1ccc(-[n+]2ccc3ccccc3c2)c([N+](=O)[O-])c1 :: 6.03
C=CCNc1cccc2c1C(=O)c1ccccc1C2(O)CC=C (stereo unspecified) :: 45.7

Q) Query (molecule): `N#Cc1ccc2oc3ccc(C#N)cc3c(=O)c2c1` ; field requested: TGI
A) 51.1

* * *

System: KM12 colon
Assay: NCI tumour cell line growth inhibition, 48 h
endpoint-name: TGI (µM)
Hi! Could you send only the number? It should be in µM, unit omitted.

Sample records with TGI:
COc1ccc(C(=O)N/N=C/c2ccc(O)cc2O)cc1Nc1ccnc(C(F)(F)F)c1 :: 13.9
OC(C(=Nc1ccccc1)c1ccccc1)c1ccccc1 (stereo not given) :: 10.4
COc1ccc(-c2c(C#N)c(N)nc3c2CCCc2ccc(F)cc2-3)cc1OC :: 2.58
C1=C[C@]2(CCC13OCCO3)COc1ccccc12 :: 75.5

Q) Query for KM12 colon: what TGI does the record show for COC(=O)[C@H](Cc1ccccc1)NC(=O)[C@@H](OC)[C@@H]1Cc2cc3cc(OC4CC(OC5CC(O)C(O)C(C)O5)C(O)C(C)O4)c(C)c(O)c3c(O)c2C(=O)[C@H]1OC1CC(OC2CC(OC3CC(C)(O)C(O)C(C)O3)C(O)C(C)O2)C(O)C(C)O1 (stereo not given in full) ?
A) 0.12

These measurements were taken from PubChem BioAssay (NCI).
